Numbers sourced from patent US6204293A.

Biological target: Rat brain protein farnesyltransferase (Rattus norvegicus, UniProt Q02293+Q04631)
Construct: Rat brain protein farnesyltransferase activity is measured; from tissue; host or cells: rat brain
Assay: % inhibition of farnesylation, scintillation proximity assay with biotin-K Ras B fragment
Type: biochemical
Settings: Table 2; 1 × 10^-6 M
MEASUREMENT_TYPE: % inhibition at 1 × 10^-6 M (%)

{"COMPOUND": "CSCC[C@H](NC(=O)c1ccc(CN[C@@H](/C=C\\CC(C)C)CC2CCCCC2)cc1-c1ccccc1)C(=O)O", "MEASUREMENT_TYPE": "% inhibition at 1 × 10^-6 M", "RECORDED_RESULT": 55}

P = CSCC[C@H](NC(=O)c1ccc(CN(CCc2ccccc2)Cc2ccccc2)cc1-c1ccccc1C)C(=O)O
Q = CSCC[C@H](NC(=O)c1ccc(CNCCS)cc1-c1ccccc1)C(=O)O
Endpoint returns whichever of P and Q has the numerically higher % inhibition at 1 × 10^-6 M. Give the chosen item's label as your response. P
(P: 96%, Q: 61%)

---

Target: Rat brain protein farnesyltransferase (Rattus norvegicus, UniProt Q02293+Q04631)
Construct: Rat brain protein farnesyltransferase activity is measured; from tissue; host or cells: rat brain
Test: % inhibition of farnesylation, scintillation proximity assay with biotin-K Ras B fragment
Type: biochemical
Details: Table 4; 1 × 10^-8 M
MEASUREMENT_TYPE: % inhibition at 1 × 10^-8 M (%)

{"COMPOUND": "CSCC[C@H](NC(=O)c1ccc(CN(Cc2cncs2)S(=O)(=O)c2ccc(C)cc2)cc1-c1ccccc1C)C(=O)O [Example 877]", "% inhibition at 1 × 10^-8 M, %": 68}
{"COMPOUND": "CSCC[C@H](NC(=O)c1ccc(CN(CCC2CCCCC2)C(=O)c2ccccc2)cc1-c1ccccc1C)C(=O)O [Example 762]", "% inhibition at 1 × 10^-8 M, %": 84}
{"COMPOUND": "CSCC[C@H](NC(=O)c1ccc(CN(CCc2ccccc2)c2cncnc2)cc1-c1ccccc1C)C(=O)O [Example 518]", "% inhibition at 1 × 10^-8 M, %": 90}
{"COMPOUND": "CSCC[C@H](NC(=O)c1ccc(CN(Cc2cncs2)C2CCSCC2)cc1-c1ccccc1C)C(=O)O [Example 881]", "% inhibition at 1 × 10^-8 M, %": 69}
{"COMPOUND": "CSCC[C@H](NC(=O)c1ccc(CN(CCC2CCCCC2)Cc2ccccc2)cc1-c1ccccc1C)C(=O)[O-].[Li+] [Example 605]", "% inhibition at 1 × 10^-8 M, %": 68}
{"COMPOUND": "CCCCS(=O)(=O)N(CCCc1ccccc1)Cc1ccc(C(=O)N[C@@H](CCSC)C(=O)O)c(-c2ccccc2C)c1 [Example 927]", "% inhibition at 1 × 10^-8 M, %": 74}

---

Target: Rat brain protein farnesyltransferase (Rattus norvegicus, UniProt Q02293+Q04631)
Construct: Rat brain protein farnesyltransferase activity is measured; from tissue; host or cells: rat brain
Assay: % inhibition of farnesylation, scintillation proximity assay with biotin-K Ras B fragment
Type: biochemical
Settings: Table 2; 1 × 10^-6 M
MEASUREMENT_TYPE: % inhibition at 1 × 10^-6 M (%)

{"LINE_NOTATION": "CSCC[C@H](NC(=O)c1ccc(CNCc2ccccc2)cc1-c1ccccc1)C(=O)O.Cl", "% inhibition at 1 × 10^-6 M (%)": 69}
{"LINE_NOTATION": "CSCC[C@H](NC(=O)c1ccc(CN2CCC[C@H]2COCc2ccccc2)cc1-c1ccccc1C)C(=O)O", "% inhibition at 1 × 10^-6 M (%)": 90}
{"LINE_NOTATION": "CSCC[C@H](NC(=O)c1ccc(CN(CCCc2ccccc2)c2ccccc2)cc1-c1ccccc1C)C(=O)O", "% inhibition at 1 × 10^-6 M (%)": 95}
{"LINE_NOTATION": "CSCC[C@H](NC(=O)c1ccc(CN(C2CC2)C2(CC3CCCCC3)CC2)cc1-c1ccccc1C)C(=O)O", "% inhibition at 1 × 10^-6 M (%)": 98}

---

Biological target: Rat brain protein farnesyltransferase (Rattus norvegicus, UniProt Q02293+Q04631)
Construct: Rat brain protein farnesyltransferase activity is measured; from tissue; host or cells: rat brain
Experiment: % inhibition of farnesylation, scintillation proximity assay with biotin-K Ras B fragment
Type: biochemical
Conditions: Table 2; 1 × 10^-6 M
MEASUREMENT_TYPE: % inhibition at 1 × 10^-6 M (%)

Consider the following illustrative entries.
{"LINE_NOTATION": "CSCC[C@H](NC(=O)c1ccc(C=CCCCc2ccccc2)cc1-c1ccccc1C)C(=O)O", "UNIT_OF_MEASURE": "%", "% inhibition at 1 × 10^-6 M": 87}
{"LINE_NOTATION": "CSCC[C@H](NC(=O)c1ccc(CCCc2ccc3ccccc3c2)cc1-c1ccccc1C)C(=O)[O-].[Li+]", "UNIT_OF_MEASURE": "%", "% inhibition at 1 × 10^-6 M": 95}
{"LINE_NOTATION": "CSCC[C@H](NC(=O)c1ccc(/C=C/c2cnccn2)cc1-c1ccccc1C)C(=O)O", "UNIT_OF_MEASURE": "%", "% inhibition at 1 × 10^-6 M": 95}

1 = CSCC[C@H](NC(=O)c1ccc(CCCCC2CCCCC2)cc1-c1ccccc1C)C(=O)O
2 = CSCC[C@H](NC(=O)c1ccc(CNC(C)(C)CC2CCCCC2)cc1-c1ccccc1C)C(=O)O
3 = CSCC[C@H](NC(=O)c1ccc(NC(=O)Cc2nccs2)cc1-c1ccccc1)C(=O)O
4 = CSCC[C@H](NC(=O)c1ccc(NC(=O)Cc2ccccc2)cc1-c1ccccc1C)C(=O)O
List from greatest to least % inhibition at 1 × 10^-6 M. Use the labels to give the ranking in the order requested. 1, 2, 4, 3
(1: 98%, 2: 62%, 4: 40%, 3: 18%)
